Target: human dopamine D3 receptors (Homo sapiens, UniProt P35462)
Construct: expressed in transfected cells
Sequence (P35462 whole entry): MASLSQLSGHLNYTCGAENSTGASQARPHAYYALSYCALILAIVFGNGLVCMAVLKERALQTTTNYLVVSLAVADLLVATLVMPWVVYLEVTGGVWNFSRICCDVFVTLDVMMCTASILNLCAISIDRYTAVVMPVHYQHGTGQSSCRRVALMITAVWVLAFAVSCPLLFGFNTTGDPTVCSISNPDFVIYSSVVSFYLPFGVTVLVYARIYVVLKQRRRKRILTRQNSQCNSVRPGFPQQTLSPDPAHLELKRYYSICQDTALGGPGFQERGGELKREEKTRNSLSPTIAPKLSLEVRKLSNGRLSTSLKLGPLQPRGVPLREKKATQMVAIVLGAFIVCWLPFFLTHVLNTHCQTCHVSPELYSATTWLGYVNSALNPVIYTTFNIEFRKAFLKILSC
Test: Dopamine D3 receptor binding, displacement of [125I]-iodosulpride
Conditions: selectivity ratio of the receptor binding constants D2 over D3
Description: The substance to be tested was either dissolved in methanol/Chremophor® (BASFAG) or in dimethyl sulfoxide and then diluted with water to the desired concentration. Each assay mixture was run in triplicate. […] The inhibition curves were analyzed by means of iterative nonlinear regression analysis using the Statistical Analysis System (SAS) which is similar to the “LIGAND” program described by Munson and Rodbard. […]
Consider the cut-off 30. If the recorded Ki(D2)*/Ki(D3)* is strictly smaller, the label is Condition met; if not, the label is Condition not met.

Worked set:
{"compound": "CC(C)c1ccc(S(=O)(=O)Nc2ccc([C@@H]3CCNC3)cc2)cc1", "cat": "Condition not met"}
{"compound": "CCCN1CC(c2ccc(NS(=O)(=O)c3ccc(C(C)C)cc3)cc2)C1", "cat": "Condition not met"}
{"compound": "CCCN1CC[C@@H](c2ccc(NS(=O)(=O)c3cc4ccccc4o3)cc2)C1", "cat": "Condition not met"}
{"compound": "CCCN1CCC(c2ccc(NS(=O)(=O)c3ccc(C(C)C)cc3)cc2F)C1.Cl (centres unmarked)", "cat": "Condition met"}
{"compound": "CCCN1CC[C@@H](c2ccc(NS(=O)(=O)c3ccc(C(C)C)cc3F)cc2)C1", "cat": "Condition met"}
{"compound": "CCCN1CC[C@@H](c2ccc(NS(=O)(=O)c3ccc(N4CCCC4=O)cc3)cc2)C1", "cat": "Condition met"}

Field: next compound
**Query** Hi there! Is Ki(D2)*/Ki(D3)* for CCCN1CC[C@@H](c2ccc(NS(=O)(=O)c3ccc4c(c3)CCO4)cc2)C1 below 30, do you know?
**Result** Condition not met

----------
Target: human dopamine D3 receptors (Homo sapiens, UniProt P35462)
Construct: expressed in transfected cells
Test: Dopamine D3 receptor binding, displacement of [125I]-iodosulpride
Details: selectivity ratio of the receptor binding constants D2 over D3
Method: The substance to be tested was either dissolved in methanol/Chremophor® (BASFAG) or in dimethyl sulfoxide and then diluted with water to the desired concentration. Each assay mixture was run in triplicate. […] The inhibition curves were analyzed by means of iterative nonlinear regression analysis using the Statistical Analysis System (SAS) which is similar to the “LIGAND” program described by Munson and Rodbard. […]
Labelling: Ki(D2)*/Ki(D3)* reported below 40 becomes label 1; at or above becomes label 0.

Take a look at these entries with their results.
{"molecule": "CC(C)c1ccc(S(=O)(=O)Nc2ccc(C3CCNC3)c(F)c2)cc1 (stereo not drawn) [Example 129]", "cat": "label 1"}
{"molecule": "CCCN1CC[C@H](c2ccc(NS(=O)(=O)c3ccc(C(C)C)cc3)cc2)C1.Cl [Example 5]", "cat": "label 0"}
{"molecule": "CCCN1CC[C@@H](c2ccc(NS(=O)(=O)c3ccc(N4CCCC4)cc3)cc2)C1 [Example 67]", "cat": "label 1"}

**Query** Consider the molecule CCCN1CC[C@@H](c2ccc(NS(=O)(=O)c3ccc([C@@H](C)CF)cc3)cc2)C1 [Example 93] . Is its Ki(D2)*/Ki(D3)* strictly less than 40?
**Result** label 1

**Query** Is Ki(D2)*/Ki(D3)* of CC(C)c1ccc(S(=O)(=O)Nc2ccc([C@@H]3CCN(CCCO)C3)cc2)cc1 [Example 53] strictly below 40?
**Result** label 1
